Test system: Fibroblast
test.description: Multiplex assay against human fibroblast
Assay type: toxicity, cell-based
condition.summary: 48 h, 10 µM, compound concentration 10 uM, replicate 2
Recorded Population Hoechst High Intensity Objects (%) for the following compounds
Please respond with the number in % and leave the unit unwritten.

Nc1ccc(C(=O)Nc2cccc(-c3nc(N4CCOCC4)c4oc5ncccc5c4n3)c2)cn1 :: 67
CC(C)Oc1ccc(C(=O)N[C@H](CNC(=O)CN(C)C)Cc2ccc(-c3cn4cccc([C@H](C)O)c4n3)cc2)cc1Cl [GSK-923295A] :: 35
Cl.Cl.Nc1ncnc2c1c(-c1cccc(OCc3ccccc3)c1)cn2[C@H]1C[C@@H](CN2CCC2)C1 :: 47
O=C(O)c1ccc2cc(-c3ccc(O)c(C45CC6CC(CC(C6)C4)C5)c3)ccc2c1 [O-DEMETHYLATED ADAPALENE] :: 14
CCn1c(-c2nonc2N)nc2cnc(Oc3cccc(NC(=O)c4ccc(OCCN5CCOCC5)cc4)c3)cc21 [GSK-269962A] :: 22

State its Population Hoechst High Intensity Objects (%) on Fibroblast: C1=N/C2=N/c3ccc(OCCN4CCCC4)c(c3)COC/C=C\COCc3cccc(c3)C(=C1)N2 14

Form entry - test system: Fibroblast; read-out: Population Hoechst High Intensity Objects (%); compound: CC(C)N1CCC(C)(C)c2cc(C#Cc3ccc(C(=O)O)cc3)ccc21 84

Recall the recorded Population Hoechst High Intensity Objects (%) for CCC(=O)O[C@]1(C(=O)SCF)[C@H](C)C[C@H]2[C@@H]3C[C@H](F)C4=CC(=O)C=C[C@]4(C)[C@@]3(F)[C@@H](O)C[C@@]21C [FLUTICASONE PROPIONATE] with Fibroblast and state it. 35

Param readout= Population Hoechst High Intensity Objects (%); system= Fibroblast; entry= Cc1cc2c(cc1N1C(=O)c3cccc4c(CCCO)ccc(c34)C1=O)n(C)c(=O)n2C ; returns value. 9

Request body: readout Population Hoechst High Intensity Objects (%), system Fibroblast, query Cc1nc(Cc2cccc(C(F)(F)F)c2)sc1-c1ccc(C(N)=O)nc1 [TP-024n] . Return the value. 10

What Population Hoechst High Intensity Objects (%) appears in the records for this compound with Fibroblast? CNc1oc(-c2cccc3ccccc23)nc1C#N 69

Param readout= Population Hoechst High Intensity Objects (%); system= Fibroblast; entry= CC(=O)c1cc(-c2cc(C(=O)NC3CC3)ccc2C)c2ncccn12 ; returns value. 9

# value lookup — system Fibroblast, readout Population Hoechst High Intensity Objects (%), item Nc1nc2c(c(N3CCNCC3)n1)CCC1=C2[C@@H]2CCCC[C@@H]2O1 47

Please provide the recorded Population Hoechst High Intensity Objects (%) for COc1cc(N2CCC(N(C)C)CC2)ccc1Nc1ncc(Cl)c(Nc2ccccc2P(C)(C)=O)n1 , tested on Fibroblast. 16

What value of Population Hoechst High Intensity Objects (%) on Fibroblast does COc1ccc(NS(=O)(=O)c2sc3ccc(Cl)cc3c2C)cc1N1CCNCC1.Cl have? 24

What value of Population Hoechst High Intensity Objects (%) on Fibroblast does CCc1cc2c(cc1CC)CC(NC[C@H](O)c1ccc(O)c3[nH]c(=O)ccc13)C2 [INDACATEROL] have? 37

Could you share what Population Hoechst High Intensity Objects (%) was measured for CCCn1c(=O)c2[nH]c(C34CC5CC(CC3C5)C4)nc2n(CCC)c1=O [ROLOFYLLINE] , tested on Fibroblast? 50

# query: Population Hoechst High Intensity Objects (%) | item COc1cc2c(NC3CCN(C(C)C)CC3)nc(N3CCC(F)(F)CC3)nc2cc1OCCCN1CCCC1 | system: Fibroblast 47
